# protocol notes: Apparent pKa of LNP formulations, TNS fluorescence assay
# Format: physicochemical
# test conditions: LNP cationic lipid/DSPC/cholesterol/DMG-PEG 50/10/38.5/1.5 mol %
Apparent Pka for assorted molecules
Respond using a number only.

>  <molecule>
CCCCCCCCCCCC(=O)OCCCCCN(CCN(CCO)CCCCCOC(=O)CC(CCCCCCCC)CCCCCCCC)C1CC1

>  <test value>
6.042

$$$$
>  <molecule>
CCCCCCCCC(CCCCCC)CNC(=O)CCCCCN(CCCCCO)CCN(CCCCC(COC(=O)CCCCCCC)COC(=O)CCCCCCC)C1CCCCCC1 (stereo not shown)

>  <test value>
6.668

$$$$
>  <molecule>
CCCCCCCCCCCOC(=O)CCCCCN(CCN(CCO)CCCCCC(=O)OCC(CCCCCC)CCCCCCCC)C1CCC1 (stereo not shown)

>  <test value>
6.709

$$$$

Below: the item to evaluate.
Please look up its Apparent Pka: "CCCCCCCC(=O)OCC(CCCCN(CCO)CCN(CCCCC(COC(=O)CCCCCCC)COC(=O)CCCCCCC)C1CCCCCCC1)COC(=O)CCCCCCC"
6.02

###

# protocol notes: Lipid nanoparticle size and polydispersity by dynamic light scattering
# Type: physicochemical
# test conditions: LNP of lipid/DSPC/cholesterol/PEG-lipid 50:10:38.5:1.5 encapsulating hEPO mRNA
recorded endpoint: size (nm)
API: value field is a number in nm; no unit string.

As a guide, the following entries are already answered.
>  <compound>
CCCCCCCCC(CCCCCCCC)CC(=O)NCCCCCN(CCN(CCO)CCCCCOC(=O)CC(CCCCCCCC)CCCCCCCC)C1CCCCCCC1 [Compound 75]

>  <unit>
nm

>  <size (nm)>
76.62

$$$$
>  <compound>
CCCCCCCCC(CCCCCC)CNC(=O)CCCCCN(CCCCCO)CCN(CCCCC(COC(=O)CCCCCCC)COC(=O)CCCCCCC)C1CCCCCC1 (stereo not shown) [Compound 225]

>  <unit>
nm

>  <size (nm)>
76.81

$$$$
>  <compound>
CCCCCCCCC(CCCCCCCC)COC(=O)CCCCCN1CCC(N(CCO)CCCCC(COC(=O)CCCCCCC)COC(=O)CCCCCCC)CC1 [Compound 261]

>  <unit>
nm

>  <size (nm)>
82.86

$$$$
>  <compound>
CCCCCCCCC(CCCCCC)CNC(=O)CCCCCN(CCCCN(CCO)CCCCC(COC(=O)CCCCCCC)COC(=O)CCCCCCC)C1CCCCCC1 (stereo not shown) [Compound 198]

>  <unit>
nm

>  <size (nm)>
96.11

$$$$
>  <compound>
CCCCCCCCC(CCCCCC)CNC(=O)CCCCN(CCO)CCN(CCCCC(COC(=O)CCCCCCC)COC(=O)CCCCCCC)C1CCCCCCC1 (stereo not shown) [Compound 214]

>  <unit>
nm

>  <size (nm)>
76.29

$$$$
>  <compound>
CCCCCCCCC(CCCCCC)CNC(=O)CCCCN(CCO)CCN(CCCCC(COC(=O)CCCCCCC)COC(=O)CCCCCCC)C1CCCC1 (stereo not shown) [Compound 227]

>  <unit>
nm

>  <size (nm)>
83.54

$$$$

Below: the item to evaluate.
Please look up its size (nm): CCCCCCCCCCCOC(=O)CCCCCN(CCN(CCO)CCCCCCC(=O)OCC(CCCCCCCC)CCCCCCCC)C1CCCCC1 [Compound 43]
66.41
